Test: Equilibrium solubility of crystalline RO6897779 in FaSSIF-V1 with and without Soluplus
Assay type: physicochemical
Conditions: pH 6.5, thermodynamic from solid; neat FaSSIF-V1, Soluplus 0.00 mg mL^–1 (D/P 100%), 48 h, 37 °C; read-out: solubility
Value Type: solubility at 48 h

O=C(OCc1ccc(OC(F)(F)F)cc1)N1C[C@@H]2CN(C(=O)c3ccc4[nH]nnc4c3)C[C@H]2C1 22.9 µg/mL

----------
Test: Equilibrium solubility of crystalline RO6897779 in FaSSIF-V1 with and without Soluplus
Assay type: physicochemical
Details: FaSSIF-V1 with Soluplus 1.50 mg mL^–1, aqueous with cosolvent or surfactant or cyclodextrin, thermodynamic from solid; FaSSIF-V1, Soluplus 1.50 mg mL^–1 (D/P 40%), 48 h, 37 °C; read-out: solubility
Value Type: solubility at 48 h (µg/mL)

O=C(OCc1ccc(OC(F)(F)F)cc1)N1C[C@@H]2CN(C(=O)c3ccc4[nH]nnc4c3)C[C@H]2C1 69

----------
Assay: Equilibrium solubility of crystalline RO6897779 in FaSSIF-V1 with and without Soluplus
Assay type: physicochemical
Conditions: FaSSIF-V1, 37 °C, fassif, thermodynamic from solid; Form I; pH = 6.5 ± 0; read-out: solubility in FaSSIF-V1
Value Type: solubility at 48 h (µg/mL)

Compound	Value Type	Experimental Value
O=C(OCc1ccc(OC(F)(F)F)cc1)N1C[C@@H]2CN(C(=O)c3ccc4[nH]nnc4c3)C[C@H]2C1 [RO6897779]	solubility at 48 h	22.9

----------
Experiment: Equilibrium solubility of crystalline RO6897779 in FaSSIF-V1 with and without Soluplus
Type: physicochemical
Conditions: FaSSIF-V1 with Soluplus 9.00 mg mL^–1, aqueous with cosolvent or surfactant or cyclodextrin, thermodynamic from solid; FaSSIF-V1, Soluplus 9.00 mg mL^–1 (D/P 10%), 48 h, 37 °C; read-out: solubility

Molecule	U	solubility at 48 h
O=C(OCc1ccc(OC(F)(F)F)cc1)N1C[C@@H]2CN(C(=O)c3ccc4[nH]nnc4c3)C[C@H]2C1 [RO6897779]	µg/mL	215

----------
Assay: Equilibrium solubility of crystalline RO6897779 in FaSSIF-V1 with and without Soluplus
Type: physicochemical
Conditions: FaSSIF-V1 with Soluplus 2.33 mg mL^–1, aqueous with cosolvent or surfactant or cyclodextrin, thermodynamic from solid; FaSSIF-V1, Soluplus 2.33 mg mL^–1 (D/P 30%), 48 h, 37 °C; read-out: solubility

Compound	solubility at 48 h (µg/mL)
O=C(OCc1ccc(OC(F)(F)F)cc1)N1C[C@@H]2CN(C(=O)c3ccc4[nH]nnc4c3)C[C@H]2C1 [RO6897779]	96.2
